Provide the recorded MIC for the entries that follow.
System: A. flavus MMX 5948
protocol_text: MIC/MEC assay (CLSI microdilution)
Assay type: cell-based
experimental_context: Aspergillus flavus, MMX5948, 48 h, RPMI plus 0.002% Tween-80, read-out: MIC
Description: Aureobasidin and test compounds (i.e., AbA derivatives of the present invention) were received from Kalexsyn, Inc. (Kalamazoo, Mich.) as powder and were stored at 4° C. until the day of assay. […] amphotericin was obtained from Sigma Aldrich and stored under like conditions. […] Ethanol (95%) was used as a solvent and diluent for all AbA compounds. Amphotericin B was tested from 0.06-64 μg/mL. […]
Numbered stars: 1 amine (or outer) side, 2 acyl side, 3 side chain; on linkers, the order of the positions; unused ones are H or OH. Square brackets hold non-standard residues; d marks the D form. Peptide text beside a SMILES is read from it. X3 = CN1CCN(c2ccc(-c3cccc(C[C@@H](C(=O)[*:2])N(C)[*:1])c3)cn2)CC1; X4 = CN1CCN(c2cc(-c3cccc(C[C@@H](C(=O)[*:2])N(C)[*:1])c3)ccn2)CC1; X30 = CN([C@@H](Cc1cccc(-c2ccc(Cl)c(Cl)c2)c1)C(=O)[*:2])[*:1]; X17 = CN([C@@H](Cc1cccc(-c2cnc3ccccc3c2)c1)C(=O)[*:2])[*:1]; Hmp(2R,3S) = CC[C@H](C)[C@@H](O)C(=O)O; NMeVal(β-OH) = CN[C@H](C(=O)O)C(C)(C)O; NMeV = CN[C@H](C(=O)O)C(C)C
One number for each entry, in µg/mL.

Solved entries:
Query: Which value of MIC has been reported for CC[C@H](C)[C@@H]1NC(=O)[C@@H]2CCCN2C(=O)[C@H](Cc2cccc(-c3ccnc(N4CCN(C)CC4)c3)c2)N(C)C(=O)[C@H](Cc2ccccc2)NC(=O)[C@H](C(C)C)N(C)C(=O)[C@@H]([C@@H](C)CC)OC(=O)[C@H](C(C)(C)O)N(C)C(=O)[C@H](CC(C)C)NC(=O)[C@H](C(C)C)N(C)C1=O [Compound 15] (cyclo(F[X4]PI[NMeV]L[NMeVal(β-OH)][Hmp(2R,3S)][NMeV])) in the records?
Reply: 0.25

Query: # lookup: MIC of CC[C@H](C)[C@@H]1NC(=O)[C@@H]2CCCN2C(=O)[C@H](Cc2cccc(-c3ccc(Cl)c(Cl)c3)c2)N(C)C(=O)[C@H](Cc2ccccc2)NC(=O)[C@H](C(C)C)N(C)C(=O)[C@@H]([C@@H](C)CC)OC(=O)[C@H](C(C)(C)O)N(C)C(=O)[C@H](CC(C)C)NC(=O)[C@H](C(C)C)N(C)C1=O [Compound 2] (cyclo(F[X30]PI[NMeV]L[NMeVal(β-OH)][Hmp(2R,3S)][NMeV]))
Reply: 1

Give one value of MIC per listed compound.
1. CC[C@H](C)[C@@H]1NC(=O)[C@@H]2CCCN2C(=O)[C@H](Cc2cccc(-c3cnc4ccccc4c3)c2)N(C)C(=O)[C@H](Cc2ccccc2)NC(=O)[C@H](C(C)C)N(C)C(=O)[C@@H]([C@@H](C)CC)OC(=O)[C@H](C(C)(C)O)N(C)C(=O)[C@H](CC(C)C)NC(=O)[C@H](C(C)C)N(C)C1=O [Compound 27] (cyclo(F[X17]PI[NMeV]L[NMeVal(β-OH)][Hmp(2R,3S)][NMeV]))
2. CC[C@H](C)[C@@H]1NC(=O)[C@@H]2CCCN2C(=O)[C@H](Cc2cccc(-c3ccc(N4CCN(C)CC4)nc3)c2)N(C)C(=O)[C@H](Cc2ccccc2)NC(=O)[C@H](C(C)C)N(C)C(=O)[C@@H]([C@@H](C)CC)OC(=O)[C@H](C(C)(C)O)N(C)C(=O)[C@H](CC(C)C)NC(=O)[C@H](C(C)C)N(C)C1=O [Compound 20] (cyclo(F[X3]PI[NMeV]L[NMeVal(β-OH)][Hmp(2R,3S)][NMeV]))

Reply:
1: 0.5; 2: 0.015
